- Test system: glycogen synthase kinase-3 (GSK3A per assay name; protocol says GSK3B)
- Test method notes: GSK3 binders on small-molecule microarrays, primary screen, biochemical, small-molecule microarray, 635 nm fluorescence, GSK3A (AID 1103); also: the record names both GSK3A and GSK3B
- Assay setup: small-molecule microarray binding, fluorescence 635 nm; higher = more signal
Class boundaries, taken from values of composite z-score, are as follows: low value: < 0.3; medium value: ≥ 0.3 and < 1; high value: ≥ 1

Band assignment needed for `COc1ccc([Si](C)(C)[C@@H]2[C@@H](CC(=O)N3CCC[C@H]3CO)O[C@]3(C(=O)N(C)c4c(Br)cc(C)cc43)[C@H]2C)cc1` please.
medium value

Band assignment needed for `COc1ccc(C#Cc2ccc3c(c2)[C@]2(C(=O)N3)[C@H](C(=O)NC[C@H](O)c3ccccc3)[C@H]3C(=O)O[C@H](c4ccccc4)[C@H](c4ccccc4)N3[C@@H]2c2ccc(OCCO)cc2)cc1` please.
high value

Band assignment needed for `CC(C)CNC(=O)[C@@H]1c2ccccc2C(=O)N(Cc2cc(C(F)(F)F)cc(C(F)(F)F)c2)[C@H]1c1ccc(CO)cc1` please.
low value

Band assignment needed for `COCCOC(=O)N1C(=O)[C@@]2(c3cc(C#CCNC(N)=O)ccc31)[C@H](C(=O)N1CCN(c3ncccn3)CC1)[C@H]1C(=O)O[C@H](c3ccccc3)[C@H](c3ccccc3)N1[C@@H]2c1ccccc1OCCO` please.
low value

Band assignment needed for `COc1ccc([Si](C)(C)[C@@H]2[C@@H](CC(=O)N(CCO)Cc3ccccc3)O[C@]3(C(=O)N(C)c4ccccc43)[C@H]2C)cc1` please.
high value

Band assignment needed for `O=C1O[C@H](c2ccccc2)[C@H](c2ccccc2)N2[C@H]1[C@@H](C(=O)O)[C@]1(C(=O)Nc3ccc(C#CC4=CCCCC4)cc31)[C@H]2c1ccc(OCCO)cc1` please.
high value

Band assignment needed for `COc1ccc(CCNC(=O)[C@@]2(c3ccc([N+](=O)[O-])cc3)CC(=O)N(CC34CC5CC(CC(C5)C3)C4)[C@@H]2c2ccc(CO)cc2)cc1` please.
high value

Band assignment needed for `CC(=O)NCCCC[C@@H]1NC(=O)[C@@H]2C[C@H](C(=O)NCCCCCCNC(=O)CS)[C@H](c3ccc(O)cc3)N2C1=O` please.
low value

Band assignment needed for `Cc1c(NC(=O)CC#N)c(=O)n(-c2ccccc2)n1C` please.
medium value

Band assignment needed for COC(=O)C1=CC(CCCO)=CC(C2CC2)N(Cc2sc3ccccc3c2Cl)C=C1C(=O)OC (stereo not drawn) please.
medium value

Band assignment needed for `CC(C)NC(=O)[C@@]1(Cc2ccccc2I)c2ccccc2C(=O)N(Cc2ccccc2)[C@H]1c1ccc(CO)cc1` please.
high value

Band assignment needed for `C=CCOC(=O)[C@H]1[C@@H]2C(=O)O[C@@H](c3ccccc3)[C@@H](c3ccccc3)N2[C@@H](c2ccc(OCCOC(=O)[C@@H]3C[C@@H]4C(=O)NCC(=O)N4[C@@H]3c3ccc(O)cc3)cc2)[C@]12C(=O)Nc1ccccc12` please.
high value

Band assignment needed for `CO[C@H]1O[C@H](CO)[C@@H](OC(=O)Nc2ccc(Oc3ccccc3)cc2)[C@H](OC(=O)Nc2ccccc2)[C@H]1OC(=O)Nc1ccccc1` please.
high value

Band assignment needed for CCOC(=O)C1=CCC(C(C)(C)C)N(S(=O)(=O)c2ccc(C)cc2)C1 (stereo not drawn) please.
medium value

Band assignment needed for O=C1OCCC=C[C@H]2OC34C=CCN(Cc5ccccc5)C(=O)[C@H]3N(CCCO)C(=O)[C@@H]4C12 (stereo partly drawn) please.
low value

Band assignment needed for `COCC(=C=CC[C@@H](O)c1ccc(CO)o1)CCO` please.
low value

Band assignment needed for `Cc1ccc([C@H]2[C@H](C(=O)O)[C@H](Sc3ccccc3)[C@@H](C(C)C)N2S(=O)(=O)c2ccc(C)cc2)cc1` please.
high value

Band assignment needed for `NC(=O)NCC#Cc1ccc2c(c1)[C@]1(C(=O)N2)[C@H](C(=O)NC[C@H](O)c2ccccc2)[C@H]2C(=O)O[C@H](c3ccccc3)[C@H](c3ccccc3)N2[C@@H]1c1ccc(O)cc1` please.
medium value

Band assignment needed for `COCCOC(=O)N1C(=O)[C@@]2(c3cc(C#CCNC(N)=O)ccc31)[C@H](c1ccc(OCCO)cc1)N1[C@H](c3ccccc3)[C@H](c3ccccc3)OC(=O)[C@H]1[C@@H]2C(=O)N1CCc2cc(OC)c(OC)cc2C1` please.
low value

Band assignment needed for CC(=O)C1=CCC(c2ccccc2)N(S(=O)(=O)c2ccc(C)cc2)C1 (stereo not drawn) please.
low value

Band assignment needed for `C=CC[C@@]1(C(=O)O)N=C(c2ccc(OCCCO)cc2)O[C@@H]1c1ccccc1N=[N+]=[N-]` please.
medium value

Band assignment needed for CN1C(=O)C2C=CC(C(O)c3ccccn3)N(Nc3ccccc3)C2C1=O (stereo not drawn) please.
medium value

Band assignment needed for `CC(C)N1C(=O)C[C@@](C(=O)NCc2ccccc2)(c2ccc([N+](=O)[O-])cc2)[C@H]1c1ccc(CO)cc1` please.
medium value

Band assignment needed for CC(C)(C)N1CC=CC23O[C@@H]4/C=C\CCCOC(=O)C4[C@H]2C(=O)N(CCO)[C@@H]3C1=O (stereo partly drawn) please.
low value

Band assignment needed for `C=C[C@@H](COC(C)=O)N(Cc1ccccc1[N+](=O)[O-])S(=O)(=O)c1ccc(Br)cc1` please.
high value

Band assignment needed for `C[C@]1(C(=O)NCc2ccccc2)c2ccccc2C(=O)N(Cc2ccc(OC(F)(F)F)cc2)[C@H]1c1ccc(CO)cc1` please.
low value
